- experimental_protocol: Inhibition of endothelial cord area formation in endothelial precursor cells by CD31 cord area detection based phenotypic drug discovery based assay
- Assay type: functional
pIC50: −log10 of the molar value. Structures can show the parent of a compound that is named as a salt.
Is pIC50 at least 8? Then 1. If not, -1.

Form field: pIC50 at least 8? Entry: CNC(=O)c1cc(Oc2ccc(NC(=O)Nc3ccc(Cl)c(C(F)(F)F)c3)cc2)ccn1 [SORAFENIB TOSYLATE]
1

Form field: pIC50 at least 8? Entry: Cc1ccc(OCC(=O)N[C@@H]2c3cc(NC(=O)COc4ccc(C#N)cc4C)ccc3C[C@@H]2O)cc1
-1

Could you verify whether the entry Cc1ccc(OCC(=O)N[C@H]2c3cc(NC(=O)COc4ccc(C#N)cc4C)ccc3C[C@@H]2O)cc1 shows pIC50 of no less than 8?
-1

Could you please find out whether Cc1ccc(OCC(=O)N[C@@H]2c3cc(NC(=O)COc4ccc(C#N)cc4C)ccc3C[C@H]2O)cc1 has pIC50 that meets 8 or exceeds it?
-1

Could you please find out whether Cc1ccc(OCC(=O)N[C@H]2c3cc(NC(=O)COc4ccc(C#N)cc4C)ccc3C[C@H]2O)cc1 has pIC50 that meets 8 or exceeds it?
-1

Where do the numbers come from? From ChEMBL document CHEMBL2057113.
